assay: Evaluation of stability in liver microsome; settings: mouse liver microsome 0.25 mg/mL, 1 μM test compound, 37° C. for 30 minutes
// reported Remaining (%) per item
Respond numerically; units are % and should not be typed.

Recorded results for 3 molecules are shown here.
>  <molecule>
COCc1ccc(NC(=O)c2c(C#CC3(O)CCOC3)n(C3(C)CC3)c3ncnc(N)c23)cc1 (stereo not shown) [Example 177]

>  <resultUnit>
%

>  <Remaining (%)>
72

$$$$
>  <molecule>
COCc1ccc(NC(=O)c2cn(C(C)(C)CF)c3ncnc(N)c23)cc1 [Example 26]

>  <resultUnit>
%

>  <Remaining (%)>
60

$$$$
>  <molecule>
COCc1ccc(NC(=O)c2c(C#CCC(C)(C)O)n(C3(C)CC3)c3ncnc(N)c23)cc1 [Example 86]

>  <resultUnit>
%

>  <Remaining (%)>
66

$$$$

// switching to the query molecule
Dear colleague, I am looking for the recorded Remaining (%) of the following molecule: COCc1ccc(NC(=O)c2c(C#Cc3cncn3C)n(C3(C)CC3)c3ncnc(N)c23)cc1 [Example 93]
53
